From: patent US10206937B2

# target: purified class A, C and D enzymes (Escherichia coli, UniProt Q9L5C7)
# Sequence (Q9L5C7 entry or part of it): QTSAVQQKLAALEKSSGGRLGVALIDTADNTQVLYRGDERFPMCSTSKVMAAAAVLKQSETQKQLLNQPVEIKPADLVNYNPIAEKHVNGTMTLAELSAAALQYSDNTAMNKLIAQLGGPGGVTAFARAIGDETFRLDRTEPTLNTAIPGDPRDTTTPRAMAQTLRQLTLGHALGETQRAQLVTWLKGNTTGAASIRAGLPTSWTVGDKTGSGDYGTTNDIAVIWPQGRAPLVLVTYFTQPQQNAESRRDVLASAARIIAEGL
# Format: biochemical
# reportedConditions: purified CTX-M-14; nitrocefin reporter substrate
measuredQuantity: Ki (CTX-M-14, NCF)

- compoundString: "COc1cc(OC)c(C(=O)O)c2c1C[C@H](Sc1nnc(N)s1)B(O)O2"
  measuredQuantity: "Ki (CTX-M-14, NCF)"
  experimentalResult: "X (Less than 0.1 μM)"
- compoundString: "COc1ccc2c(c1C(=O)O)OB(O)[C@@H](Sc1nnc(N)s1)C2"
  measuredQuantity: "Ki (CTX-M-14, NCF)"
  experimentalResult: "X (Less than 0.1 μM)"
- compoundString: "NC(=O)CS[C@H]1Cc2ccc(F)c(C(=O)O)c2OB1O"
  measuredQuantity: "Ki (CTX-M-14, NCF)"
  experimentalResult: "X (Less than 0.1 μM)"
- compoundString: "COCCOc1ccc2c(c1C(=O)O)OB(O)[C@@H](Sc1nncs1)C2"
  measuredQuantity: "Ki (CTX-M-14, NCF)"
  experimentalResult: "X (Less than 0.1 μM)"

----------
Entries and their Ki values follow.
# target: purified class A, C and D enzymes (UniProt Q9F663)
# Construct: rows headed: Ki (KPC-2, NCF); other: purified KPC-2; nitrocefin reporter substrate
# reportedConditions: read-out: Ki (KPC-2, NCF); purified KPC-2; nitrocefin reporter substrate

Study these solved cases before continuing.
- compound: "CO[C@H]1Cc2ccc(F)c(C(=O)O)c2OB1O [Compound 19]"
  Ki: "< 100 nM"
- compound: "Nn1cnnc1S[C@H]1Cc2ccc(F)c(C(=O)O)c2OB1O [Compound 20]"
  Ki: "100 to 1000 nM"
- compound: "COc1ccc2c(c1C(=O)O)OB(O)[C@@H](Sc1nnc(NC(C)=O)s1)C2 [Compound 63]"
  Ki: "100 to 1000 nM"
- compound: "CCOc1ccc2c(c1C(=O)O)OB(O)[C@@H](Sc1nnc(NC3CNC3)s1)C2 [Compound 118]"
  Ki: "100 to 1000 nM"

Consider now this further compound.
Looking up COc1ccc2c(c1C(=O)O)OB(O)[C@@H](Sc1nnc(SCCN)s1)C2 [Compound 107] , I found its Ki recorded as 100 to 1000 nM

----------
# target: UniProtKB C7C422
# Sequence (C7C422 29-270, looked up, species assumed): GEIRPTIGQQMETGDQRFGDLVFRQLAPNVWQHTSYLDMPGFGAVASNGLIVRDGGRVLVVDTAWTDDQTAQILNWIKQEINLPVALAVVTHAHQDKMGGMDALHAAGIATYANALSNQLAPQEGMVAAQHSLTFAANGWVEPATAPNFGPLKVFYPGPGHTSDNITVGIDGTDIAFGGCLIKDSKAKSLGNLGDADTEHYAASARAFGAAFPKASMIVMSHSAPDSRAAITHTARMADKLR
# testProtocol: Inhibition of purified class B carbapenemase NDM-1 (Ki, imipenem substrate)
# Assay type: biochemical
# reportedConditions: NDM-1, substrate imipenem; read-out: Ki NDM-1, Imipenem
pKi: −log10 of the molar value.
measuredQuantity: pKi

Study these solved cases before continuing.
- compoundString: "NCc1cnc(S[C@H]2Cc3ccc(F)c(C(=O)O)c3OB2O)s1"
  pKi: "7.00 to 8.00"
- compoundString: "O=C(O)c1c(F)ccc2c1OB(O)[C@@H](Sc1nncs1)C2"
  pKi: "< 7.00"
- compoundString: "COc1ccc2c(c1C(=O)O)OB(O)[C@@H](Sc1nnc(SCCN)s1)C2"
  pKi: "> 8.00"
- compoundString: "COc1ccc2c(c1C(=O)O)OB(O)[C@@H](Sc1nnc(Sc3nnc(N)s3)s1)C2"
  pKi: "< 7.00"
- compoundString: "COc1ccc2c(c1C(=O)O)OB(O)[C@@H](Sc1nnc(N(CCN)CCN)s1)C2"
  pKi: "> 8.00"

Looking up `Cn1ncc(C(N)=O)c1S[C@H]1Cc2ccc(F)c(C(=O)O)c2OB1O` , I found its pKi recorded as < 7.00

Looking up `CCOc1ccc2c(c1C(=O)O)OB(O)[C@@H](Sc1nnc(NC3CNC3)s1)C2` , I found its pKi recorded as < 7.00

Looking up `COc1ccc2c(c1C(=O)O)OB(O)[C@@H](Sc1nnc(N)s1)C2` , I found its pKi recorded as 7.00 to 8.00

Looking up `O=C(O)c1c(OC(F)F)ccc2c1OB(O)[C@@H](Sc1nncs1)C2` , I found its pKi recorded as < 7.00
